- methodDescription: Inhibition of topoisomerase 1 in Saccharomyces cerevisiae RS321N in galactose medium by microtiter plate assay
pIC50: −log10 of the molar value.

chemSmiles	pIC50
COc1ccc(/C=C\c2cc(OC)c(OC)c(OC)c2)c(O)c1O	5.32
COc1ccc(CCc2cc(OC)c(OC)c(OC)c2)c(O[C@H]2O[C@@H](CO)[C@H](O)[C@@H](O)[C@@H]2O)c1O	3.86
